Molecular target: T1, mouse TREM2 (mouse, UniProt Q99NH8 19-227)
T1 construct: whole, on cells
T1 sequence (looked up): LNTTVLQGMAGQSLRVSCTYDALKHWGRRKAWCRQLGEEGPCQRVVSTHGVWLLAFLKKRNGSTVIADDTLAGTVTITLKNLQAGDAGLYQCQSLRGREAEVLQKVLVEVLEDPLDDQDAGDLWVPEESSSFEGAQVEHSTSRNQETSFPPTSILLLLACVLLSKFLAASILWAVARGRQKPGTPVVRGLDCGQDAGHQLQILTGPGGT
Assay: MFI on CT26 cells over-expressing mouse TREM2 and DAP12 vs CT26 empty vector
recorded endpoint: MFI Fold change (CT26-TREM2 over CT26-EV) (fold)
Numeric only. Scale: fold

Example binders with recorded MFI Fold change (CT26-TREM2 over CT26-EV):
EOS006173 (antibody, V domains shown, also called EOS061730) VH: EVQLVESGGGLVQPGRSLRLSCTASGFTFGDYAMSWFRQAPGKGLEWVGFIGSKAYGGTTEYTASVKGRFTISRDGSKSIAYLQMNSLKTEDTAVYYCARGKRRDYGYWHPAFDVWGQGTMVTVSS VL: DIQMTQSPSSLSASVGDRVTITCQASQDITNYLNWYQQKPGKAPKLLIYDASNLETGVPSRFSGSGSGTDFTFTISSLQPEDIATYYCQEYDQYLTFGGGTKVEIK :: 11
EOS006162 (antibody, V domains shown) VH: QVQLVQSGAEVKKPGSSVKVSCKASGGTFSSYAISWVRQAPGQGLEWMGGIIPISGTANYAQKFQGRVTITADESTSTAYMELSSLRSEDTAVYYCARTQEYTLFDSWGQGTMVTVSS VL: EIVLTQSPATLSLSPGERATLSCRASQSVSSYLAWFQQKPGQAPRLLIYDASNRATGIPARFSGSGSGTDFTLTISSLEPEDFAVYYCQQDYHWPITFGGGTKVEIK :: 6.4
PN-37012 (antibody, V domains shown, benchmark anti-TREM2 antibody from US20190309064) VH: EVQLLESGGGLVQPGGSLRLSCAASGFTFSNYYMAWVRQAPGKGLEWVSSLTNSGGSTYYADSVKGRFTISRDNSKNTLYLQMNSLRAEDTAVYYCTREWAGSGYFDYWGQGTLVTVSS VL: DIQMTQSPSSLSASVGDRVTITCKASQNVGNNLAWYQQKPGKAPKLLIYYTSNRFTGVPSRFSGSGSGTDFTLTISSLQPEDFATYYCQRIYNSPWTFGQGTKLEIK :: 21
EOS006172 (antibody, V domains shown) VH: QVQLVQSGAEVKKPGSSVKVSCKASGGTFSSYAISWVRQAPGQGLEWMGGIIPISGTANYAQKFQGRVTITADESTSTAYMELSSLRSEDTAVYYCARTQEYTLFDIWGQGTMVTVSS VL: EIVLTQSPATLSLSPGERATLSCRASQSVSSYLAWFQQKPGQAPRLLIYDASNRATGIPARFSGSGSGTDFTLTISSLEPEDFAVYYCQQDFHWPITFGGGTKVEIK :: 4.9

[in] Can you look up the measured MFI Fold change (CT26-TREM2 over CT26-EV) of EOS006181 (antibody, V domains shown) VH: EVQLVESGGGLVQPGRSLRLSCTASGFTFDDHAMSWFRQAPGKGLEWVGFIGSKAYGGTTEYTASVKGRFTISRDGSKSIAYLQMNSLKTEDTAVYYCARGKRYSYTYWTPAFDVWGQGTMVTVSS VL: DIQMTQSPSSLSASVGDRVTITCQASQDITNYLNWYQQKPGKAPKLLIYDASNLETGVPSRFSGSGSGTDFTFTISSLQPEDIATYYCQQYDSYLTFGGGTKVEIK for me?
[out] 17.4

[in] And the next one, EOS006170 (antibody, V domains shown) VH: QVQLQESGPGLVKPSGTLSLTCAVSGGSISSSNWWSWVRQPPGKGLEWIGEIYHSGSTNYNPSLKSRVTISVDKSKNQFSLKLSSVTAADTAVYYCARDTKYQAGMDVWGQGTTVTVSS VL: DIQMTQSPSSLSASVGDRVTITCQASQDISNYLNWYQQKPGKAPKLLIYDASNLATGVPSRFSGSGSGTDFTFTISSLQPEDIATYYCQQYVVFPTFGGGTKVEIK ?
[out] 1

[in] And the next one, EOS006165 (antibody, V domains shown) VH: QVQLVQSGAEVKKPGSSVKVSCKASGGTFSSYAISWVRQAPGQGLEWMGGIIPISGTANYAQKFQGRVTITADESTSTAYMELSSLRSEDTAVYYCARTQEYTAFDIWGQGTMVTVSS VL: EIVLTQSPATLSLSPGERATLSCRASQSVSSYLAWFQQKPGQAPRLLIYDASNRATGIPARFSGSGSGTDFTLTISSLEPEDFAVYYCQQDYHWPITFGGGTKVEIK ?
[out] 2.3

[in] And the next one, Ab52 (antibody, V domains shown, benchmark anti-TREM2 antibody from WO2016023019A2) VH: QVQLVQSGAEVKKPGASVKVSCKASGYTFTSYYIHWVRQAPGQGLEWMGIINPSGGSTSYAQKFQGRVTMTRDTSTSTVYMELSSLRSEDTAVYYCAREADDSSGYPLGLDVWGQGTMVTVSS VL: EIVMTQSPATLSVSPGERATLSCRASQSVSSNLAWYQQKPGQAPRLLIYGASTRATGIPARFSGSGSGTEFTLTISSLQSEDFAVYYCQQVNSLPPTFGGGTKVEIK ?
[out] 33.6

[in] And the next one, EOS006174 (antibody, V domains shown) VH: EVQLVESGGGLVQPGRSLRLSCTASGFTFGEYTMSWFRQAPGKGLEWVGFIGSKAYAGTTEYTASVKGRFTISRDGSKSIAYLQMNSLKTEDTAVYYCARGKRYSYGGWVPAFDVWGQGTMVTVSS VL: DIQMTQSPSSLSASVGDRVTITCQASQDITNYLNWYQQKPGKAPKLLIYDASNLETGVPSRFSGSGSGTDFTFTISSLQPEDIATYYCQEYDSYLAFGGGTKVEIK ?
[out] 34.3

[in] And the next one, EOS006175 (antibody, V domains shown) VH: QVQLQESGPGLVKPSGTLSLTCAVSGGSISSSNWWSWVRQPPGKGLEWIGEIYHSGSTNYNPSLKSRVTISVDKSKNQFSLKLSSVTAADTAVYYCARDTKYWGGMDVWGQGTTVTVSS VL: DIQMTQSPSSLSASVGDRVTITCQASQDISNYLNWYQQKPGKAPKLLIYDASNLATGVPSRFSGSGSGTDFTFTISSLQPEDIATYYCQQYVEAPTFGGGTKVEIK ?
[out] 3.9

[in] And the next one, EOS006177 (antibody, V domains shown) VH: QVQLQESGPGLVKPSGTLSLTCAVSGGSISDSAWWSWVRQPPGKGLEWIGEIYHDADTNYNPSLKSRVTISVDKSKNQFSLKLSSVTAADTAVYYCARDTKYWGGMDVWGQGTTVTVSS VL: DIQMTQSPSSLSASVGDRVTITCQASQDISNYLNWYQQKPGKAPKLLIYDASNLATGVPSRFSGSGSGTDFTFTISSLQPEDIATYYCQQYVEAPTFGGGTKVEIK ?
[out] 21.4
